system: MILI (PIWIL2) piRISC loaded with piRNA #1 (26 nt); assay: pre-steady-state target cleavage rate (min^-1); guide: piRNA #1 5'p-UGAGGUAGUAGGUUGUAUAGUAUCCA; higher = faster piRNA-guided slicing of the target; details: auxiliary factor: 500 nM mouse GTSF1;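 further: 1 nM active piRISC with 0.1 nM target library at 33 °C single turnover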

Entry Sequence | Limit Sign | pre-steady-state target cleavage rate
GGAGACCAUACUAUACAACCUAGUACCUCA | = | 0.0657
GGAGUGGAUACAAUACAACCUACUAGCUCA | = | 0.0614
GGAGACCUAUGAUAACAAGCUACUACCUGA | = | 0.00722
GGAGACCUAUGAUUACAACCUACUUCCUCA | = | 0.00303
GGAGACCUUAGUAUACAACCAACUACCUCA | = | 0.00446
GGAGACCUAUCUAUAACAACCUACUACCUCA | = | 0.0615
GGAGAGGAUGACUAUACAACCUACUACCUCA | = | 0.0775
GGAGAGCGAUACUAUACAACCUACUACCUCA | = | 0.249
GGAGACGAUACUAUACCACCUACUACCUCA | = | 0.168
GGAGACCAUACUAUACAACCAACUACCUCA | = | 0.00362
GGAGACCAUACUAUACAACCUACAUACCUCA | = | 0.146
GGAGAGGAUACUAUUCAACCUACUACCUGA | = | 0.0595
GGAGACCUAUGAAUACAAACUACUACCUCA | = | 0.0186
GGAGACGAUAAUAUACAACCUACUACCUCA | = | 0.172
GGAGACGAUACAAUACUACCUACUACCUCA | = | 0.201
GGAGACCUAUCUAUACAACGUAGUACCUCA | = | 0.00772
GGAGACCUAUGUAUACAAACUACUACCUCA | = | 0.111
GGAGACCAUACUAUACAACCUUCUUCCUCA | = | 0.00848
GGAGAGGAUACUAUACAACCCACUACCUCA | = | 0.0214
GGAGAGGAAACUAUACAACCUACUACCACA | = | 0.155
GGAGAGGAUUCUAUACAACCUAGUACCUCA | = | 0.0548
GGAGACCUAUGAUAUGUUGGUACUACGAGA | < | 0.0001
GGAGUCGGAUACUAUACAACCUACUACCUCA | = | 0.187
GGAGACCUAUGAAUACAACCUACUACUUCA | = | 0.00709
GGAGAGGAUAGUAUUCAACCUACUACCUCA | = | 0.0731
GGAGACCUAUGCAUACAACCUACUACCUCA | = | 0.0358
GGAGACCUAUGAUAUGUACCUACAACCUGA | < | 0.0001
GGAGACCUAUGGAUACAACCUACUACCUCA | = | 0.0189
GGAGACCUUACUAAACAACCUACUAGCUCA | = | 0.139
GGAGACCUUAUUAUACAACCUACUACCUCA | = | 0.14
GGAGUGGAUACUAAUCAACCUACUACCUCA | = | 0.144
GGAGACCAUACUAUGACAACCUACUACCUCA | = | 0.165
GGAGACCUAUGUAUACAACCUACUACCGUCA | = | 0.0528
GGAGACCUAUCUAUACAACCUUCUACCUCA | = | 0.00553
GGAGACCACUACUAUACAACCUACUACCUCA | = | 0.149
GGAGACCUAUGUAUACAACCUCCUACCUCA | = | 0.0161
GGAGACGAUAGUAUACAACCUACUACCUCA | = | 0.147
GGAGACCAUUACUAUACAACCUACUACCUCA | = | 0.137
GGAGAGGAUACUAUACAACCUAAUACCUCA | = | 0.0575
GGAGUGGAUACUAUACACCUACUACCUCA | = | 0.0342
GGAGACCUUACUAUACAACCUACUACCGUCA | = | 0.132
GGAGACCUAUGAUAUGAAGCUACUUCCUCA | < | 0.0001
GGAGACGAUACAAUACAACCUUCUACCUCA | = | 0.0137
GGAGACCUAACUAUAGUUCCUACUACCUCA | = | 0.0706
GGAGUGGAUAGUAUACAUCCUACUACCUCA | = | 0.189
GGAGACGAUACUAUUCAUCCUACUACCUCA | = | 0.264
GGAGUGGAUACUAUACAACCUACUACCUCCA | = | 0.223
GGAGACGAUUCUAUACAACGUACUACCUCA | = | 0.0237
GGAGAGGAUACUAUACAACCUACUGACCUCA | = | 0.077
GGAGAGGAUACUAUGCAACCUACUACCUCA | = | 0.214
GGAGUGGAUUCUAUAGAACCUACUACCUCA | = | 0.179
GGAGACCUUACUAUACAUCCUACAACCUCA | = | 0.214
GGAGACCUAUGUAUACAACGUACUACCUCA | = | 0.00969
GGAGACGAUAGUAUACAACCAACUACCUCA | = | 0.00662
GGAGAGGUUACUAUACAACGUACUACCUCA | = | 0.00751

* * *

test system: EfPiwi piRISC loaded with L1MC piRNA (26 nt); test: pre-steady-state target cleavage rate (min^-1); auxiliary factor: 500 nM Ephydatia muelleri Gtsf1; guide: L1MC piRNA 5'p-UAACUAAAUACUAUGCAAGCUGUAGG; higher = faster piRNA-guided slicing of the target
Listed below: pre-steady-state target cleavage rate values for each entry.

Entry Sequence | pre-steady-state target cleavage rate
UCCUGGAUGAGCUUGCAUAGUAUUCAGUUA | 0.00256
UCCUGGUUCAGCUUGCAUAGUAUUAAGUUA | 0.00579
UCCUGGAUGAGCUUGCAUAGUAUUUAGUA | 0.00405
UCCUGGAUGUCGAACGAUAGUCAUUUAGUUA | < 0.0001
UCCUGGAUCAGCUUGCAAAGUAUUAAGUUA | 0.00373
UCCUGGAUCAGCUUGCAUAGUAUUUAGUUG [g2:g22:cont:t1G] | 0.0209
UCCUGGAACACCAUGCAUAGUAUUUAGUUA | 0.00616

* * *

test system: MILI (PIWIL2) piRISC loaded with L1MC piRNA (26 nt); test: pre-steady-state target cleavage rate (min^-1); guide: L1MC piRNA 5'p-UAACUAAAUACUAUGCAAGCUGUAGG; MIWI and MILI are mouse PIWI proteins and EfPiwi is from a freshwater sponge; tags in brackets are library labels; higher = faster piRNA-guided slicing of the target; details: auxiliary factor: 500 nM mouse GTSF1;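 further: 1 nM active piRISC with 0.1 nM target library at 33 °C single turnover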

Entry Sequence | Target Under Test | pre-steady-state target cleavage rate
UCCUGGAUCAGCUUGCAUAGUAAAAAGUAA | MILI (PIWIL2) piRISC loaded with L1MC piRNA (26 nt) | 0.108
UCCUGCUACAGCUUGCAAAGUAUUUUCAAA | MILI (PIWIL2) piRISC loaded with L1MC piRNA (26 nt) | 0.0624
UCCUGGAACUCGUUGCAUAGUAUUUACAAA | MILI (PIWIL2) piRISC loaded with L1MC piRNA (26 nt) | 0.0537
UCCUGGAUGUGCUAGCAUAGUAUAUAGUUA | MILI (PIWIL2) piRISC loaded with L1MC piRNA (26 nt) | 0.115
UCCUGCUACAGCUUGCAUAGUAUUUAGUUC [g2:g25:cont:t1C] | MILI (PIWIL2) piRISC loaded with L1MC piRNA (26 nt) | 0.317
UCCUGCUACAGGAAGCAUAGUAUUUAGUUA | MILI (PIWIL2) piRISC loaded with L1MC piRNA (26 nt) | 0.282
UCCUGGAUGACCUUGCAUAGUAUUUACUUA | MILI (PIWIL2) piRISC loaded with L1MC piRNA (26 nt) | 0.0753
UCCUCCUAGAGCUUGGAUAGUAUUUAGUUA | MILI (PIWIL2) piRISC loaded with L1MC piRNA (26 nt) | 0.217
UCCUGGAUGAGCAAGCAUAGUAUUUAGAAA | MILI (PIWIL2) piRISC loaded with L1MC piRNA (26 nt) | 0.0674
UCCUGGAACAGCUAGCAUAGUAUUUAGUAA | MILI (PIWIL2) piRISC loaded with L1MC piRNA (26 nt) | 0.275
UCCUGCUACAGCUUGCAAAGUUUUUAGUUA | MILI (PIWIL2) piRISC loaded with L1MC piRNA (26 nt) | 0.0201
UCCUGCUACAGCUUGAUAGUAUUUAGUUA | MILI (PIWIL2) piRISC loaded with L1MC piRNA (26 nt) | 0.133
UCCUGCUACAGCUUCGAUAGUAUUUAGAAA | MILI (PIWIL2) piRISC loaded with L1MC piRNA (26 nt) | 0.0541
UCCUGGAUGUCGAUGCCAUAGUAUUUAGUUA | MILI (PIWIL2) piRISC loaded with L1MC piRNA (26 nt) | 0.00491
UCCUGGAACAGCUUGCAUUAGUAUUUAGUUA | MILI (PIWIL2) piRISC loaded with L1MC piRNA (26 nt) | 0.0128
UCCUCGUACAGCUUGCAUACUAUUUAGUUA | MILI (PIWIL2) piRISC loaded with L1MC piRNA (26 nt) | 0.0786
UCCUCCUACAGCUAUGCAUAGUAUUUAGUUA | MILI (PIWIL2) piRISC loaded with L1MC piRNA (26 nt) | 0.267
UCCUGGAUGUCGAAGCAUAGUAUCUAGUUA | MILI (PIWIL2) piRISC loaded with L1MC piRNA (26 nt) | 0.0263
UCCUGCUACAGCUCGCAUAGUAUUUAGUUA | MILI (PIWIL2) piRISC loaded with L1MC piRNA (26 nt) | 0.264
UCCUGGAUGUGCUUGCAUAGUUUUUUGUUA | MILI (PIWIL2) piRISC loaded with L1MC piRNA (26 nt) | 0.0102
UCCUGGAUCAGGUUGCAUAGUAUUUAGUUA | MILI (PIWIL2) piRISC loaded with L1MC piRNA (26 nt) | 0.182
UCCUGGAUGUGCCUUGCAUAGUAUUUAGUUA | MILI (PIWIL2) piRISC loaded with L1MC piRNA (26 nt) | 0.111
UCCUCCUACAGCAUGCAUAGUAUUUUCAAA | MILI (PIWIL2) piRISC loaded with L1MC piRNA (26 nt) | 0.138
UCCUCCUACACGAUGCAUAGUAUUUAGUUA | MILI (PIWIL2) piRISC loaded with L1MC piRNA (26 nt) | 0.267
UCCUCCUACAGCUUGCAUUGUAUUUUCAAA | MILI (PIWIL2) piRISC loaded with L1MC piRNA (26 nt) | 0.0415
UCCUCCAACAGCUUGCUUAGUAUUUAGUUA | MILI (PIWIL2) piRISC loaded with L1MC piRNA (26 nt) | 0.262
UCCUGGAUGUCGAUGCAUAGUAAUUUGUUA | MILI (PIWIL2) piRISC loaded with L1MC piRNA (26 nt) | 0.00959
